Assay: qHTS assay for small molecule disruptors of the mitochondrial membrane potential - 1 hr assay (AID 651754); further: nearly all actives have a fitted effect of over 35% in size; further: potency means the concentration at half of the fitted maximal effect
Details: series mostly up to 92.2 µM
Excerpt: National Center for Advancing Translational Sciences [NCATS] NIH Chemical Genomics Center [NCGC] National Institutes of Environmental Health Sciences [NIEHS] National Toxicology Program [NTP] Mitochondrial membrane potential (MMP), one of the parameters for mitochondrial function, is generated by mitochondrial electron transport chain that creates an electrochemical gradient by a series of redox reactions. […] The dye accumulates in the mitochondria of healthy cells as aggregates, with red fluorescence. […]
Inconclusive results are not listed. Activity calls are given as the source filed them. The call rests on the fitted dose curve.
Measured quantity: Potency

Smiles str: C[C@]12CCC(=O)C=C1CC[C@@H]1[C@@H]2CC[C@]2(C)C(=O)CC[C@@H]12
Observed measurement: inactive
//
Smiles str: Clc1ccc(C(c2ccc(Cl)cc2)C(Cl)(Cl)Cl)cc1
Observed measurement: inactive
//
Smiles str: CN1C[C@H](C(=O)N[C@]2(C)O[C@@]3(O)[C@@H]4CCCN4C(=O)[C@H](Cc4ccccc4)N3C2=O)C=C2c3cccc4[nH]cc(c34)C[C@H]21
Observed measurement: 11.9 µM (active)
//
Smiles str: CC(C)c1cccc(C(C)C)c1O
Observed measurement: inactive
